Attribution: patent US11179412B2

test system: STING activation (IFNβ release) in iBMDMs; assay: IFNβ release ELISA after STING ligand (or LPS) stimulation, iBMDMs; assay type: cell-based, mouse; settings: iBMDMs; 3′3′-cGAMP 10 μg/ml, 16 hours; compound 10 μM
Provide the reported fold increase in IFN-β release of each item.
Answers are plain numbers, in fold.

As a guide, the following entries are already answered.
Compound	Observed Value
C[C@@H](Oc1cc(-n2cnc3ccc(CN4CCN(C)CC4)cc32)sc1C(N)=O)c1ccccc1C(F)(F)F [GSK461364]	0.21
O=C(O)c1cc2cccc([N+](=O)[O-])c2[nH]1 [CRT0044876]	2.75
Fc1cc(F)c2c(c1)C1C=CCC1C(c1cccnc1)N2 (stereo not shown) [Golgicide A]	4.19
CC[C@H](C)C(=O)O[C@H]1C[C@@H](C)C=C2C=C[C@H](C)[C@H](CC[C@@H]3C[C@@H](O)CC(=O)O3)[C@H]21 [Lovastatin]	1.22
COc1ccccc1-c1cc(Nc2cccc(CS(N)(=O)=O)c2)ncn1 [LDC000067]	1.43

List fold increase in IFN-β release for every entry below, keeping the order given.
1. O=C(NCC1(c2nc(-c3ccccc3)cs2)CCOCC1)c1cccc(-c2noc(C(F)(F)F)n2)c1 [TMP269]
2. COc1cc(N2CCN(C)CC2)ccc1Nc1nccc(-c2cn(C)c3cnccc23)n1 [AZ191]
3. CCOC(=O)CCNc1cc(N2CCc3ccccc3CC2)nc(-c2ccccn2)n1.Cl [GSK J4 HCl]
4. COc1cc(OC)c(/C=C/S(=O)(=O)Cc2ccc(OC)c(NCC(=O)O)c2)c(OC)c1 [Rigosertib (ON-01910), Rigosertib]

1. 1.59
2. 2.01
3. 0.40
4. 0.96

# get_value(readout='fold increase in IFN-β release', item= CO[C@H]1C[C@@H]2CC[C@@H](C)[C@@](O)(O2)C(=O)C(=O)N2CCCC[C@H]2C(=O)O[C@H]([C@H](C)C[C@@H]2CC[C@@H](OC(=O)C(C)(CO)CO)[C@H](OC)C2)CC(=O)[C@H](C)/C=C(\C)[C@@H](O)[C@@H](OC)C(=O)[C@H](C)C[C@H](C)/C=C/C=C/C=C/1C [Temsirolimus (CCI-779, NSC 683864), Temsirolimus] ) 0.73
